These data points were gathered from ChEMBL document CHEMBL1629416.

- target: GABA-A receptor; alpha-2/beta-3/gamma-2 (Homo sapiens) (UniProt P18507+P28472+P47869)
- experiment-description: Positive allosteric modulation of human alpha2beta3gamma2 GABA receptor expressed in Xenopus laevis oocytes at 1 uM
- Assay type: cell-based
- run-parameters: Oocyte
Please provide measured Activity for the entries that follow.
The response must be a number in % with no trailing unit.

According to the records, this molecule `CC1CN(C(=O)c2nnc3c(-c4ncccn4)cccc3c2N)C1` displays Activity of 14

According to the records, this molecule `CN1C(=O)CN=C(c2ccccc2)c2cc(Cl)ccc21` displays Activity of 177

According to the records, this molecule `Nc1c2c(nc3c(-c4cncnc4)cccc13)CN(C1CCC1)C2=O` displays Activity of 18

According to the records, this molecule `Nc1c(C(=O)NC2CC2)nnc2c(-c3ncccn3)cccc12` displays Activity of 54

According to the records, this molecule `CC1CN(C(=O)c2nnc3c(-c4ncccn4)c(F)ccc3c2N)C1` displays Activity of 18

According to the records, this molecule `Nc1c(C(=O)N2CC(F)(F)C2)nnc2c(-c3ncccn3)cccc12` displays Activity of 6

According to the records, this molecule `CCCNC(=O)c1nnc2c(-c3ncccn3)c(F)ccc2c1N` displays Activity of 31

According to the records, this molecule `Nc1c(C(=O)N2CCC2)nnc2c(-c3ncccn3)c(F)ccc12` displays Activity of 8

According to the records, this molecule `Nc1c(C(=O)NC2CC2)nnc2c(-c3ncccn3)c(F)ccc12` displays Activity of 39

* * *

- target: GABA-A receptor; alpha-1/beta-2/gamma-2 (Homo sapiens, UniProt P14867+P18507+P47870)
- Sequence (P14867 whole entry): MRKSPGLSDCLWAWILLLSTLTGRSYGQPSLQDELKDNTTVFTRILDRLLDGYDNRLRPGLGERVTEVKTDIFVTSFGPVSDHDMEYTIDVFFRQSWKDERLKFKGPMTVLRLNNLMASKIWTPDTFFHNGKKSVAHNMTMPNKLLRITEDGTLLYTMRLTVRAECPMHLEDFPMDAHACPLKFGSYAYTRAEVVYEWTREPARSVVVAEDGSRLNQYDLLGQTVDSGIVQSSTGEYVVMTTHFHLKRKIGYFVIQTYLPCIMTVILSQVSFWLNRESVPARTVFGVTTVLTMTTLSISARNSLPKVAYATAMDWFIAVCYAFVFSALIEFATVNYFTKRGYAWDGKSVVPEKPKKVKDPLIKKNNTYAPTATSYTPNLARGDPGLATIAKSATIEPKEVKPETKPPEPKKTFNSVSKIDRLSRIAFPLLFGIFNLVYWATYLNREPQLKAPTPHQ
- Sequence (P47870 whole entry): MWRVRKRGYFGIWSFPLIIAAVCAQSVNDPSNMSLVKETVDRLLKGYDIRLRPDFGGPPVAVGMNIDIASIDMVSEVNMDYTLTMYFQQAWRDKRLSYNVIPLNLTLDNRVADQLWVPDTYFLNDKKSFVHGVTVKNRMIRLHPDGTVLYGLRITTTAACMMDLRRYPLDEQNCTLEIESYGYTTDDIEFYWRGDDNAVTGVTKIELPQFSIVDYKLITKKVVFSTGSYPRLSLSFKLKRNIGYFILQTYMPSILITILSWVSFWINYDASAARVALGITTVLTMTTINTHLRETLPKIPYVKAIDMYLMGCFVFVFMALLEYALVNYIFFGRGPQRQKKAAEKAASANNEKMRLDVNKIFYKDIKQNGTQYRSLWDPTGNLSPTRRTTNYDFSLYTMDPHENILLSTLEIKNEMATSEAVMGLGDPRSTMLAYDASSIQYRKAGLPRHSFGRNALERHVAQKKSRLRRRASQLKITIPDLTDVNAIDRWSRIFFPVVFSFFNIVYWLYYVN
- Sequence (P18507 whole entry): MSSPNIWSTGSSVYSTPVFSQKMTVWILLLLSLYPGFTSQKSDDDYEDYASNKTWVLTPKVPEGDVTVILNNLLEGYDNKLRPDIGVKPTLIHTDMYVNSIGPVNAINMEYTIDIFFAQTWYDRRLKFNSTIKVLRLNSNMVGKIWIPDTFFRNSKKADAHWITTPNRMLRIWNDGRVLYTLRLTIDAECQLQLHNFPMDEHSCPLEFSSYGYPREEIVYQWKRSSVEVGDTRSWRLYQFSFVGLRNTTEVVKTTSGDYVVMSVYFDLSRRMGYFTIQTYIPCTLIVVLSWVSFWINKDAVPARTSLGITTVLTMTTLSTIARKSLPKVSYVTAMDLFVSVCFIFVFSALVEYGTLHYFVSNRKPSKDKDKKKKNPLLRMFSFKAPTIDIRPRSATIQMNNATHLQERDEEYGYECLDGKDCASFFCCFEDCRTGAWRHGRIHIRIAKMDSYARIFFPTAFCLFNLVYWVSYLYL
- experiment-description: Binding affinity to human alpha1beta2gamma2 GABA receptor expressed in Xenopus laevis oocytes
Please provide measured EC50 for the entries that follow.
The response must be a number in nM with no trailing unit.

According to the records, this compound `CCc1c(C(=O)OC)ncc2[nH]c3cc(OC)c(OC)cc3c12` displays EC50 of 9

According to the records, this compound `CCCNC(=O)c1nnc2c(-c3cncc(C(=O)N4CCC4)c3)cccc2c1N` displays EC50 of 389
